- target-system: human α2δ-1 subunit of Cav2.2 calcium channel (Homo sapiens (Human), UniProt P54289)
- Sequence (P54289 25-1103): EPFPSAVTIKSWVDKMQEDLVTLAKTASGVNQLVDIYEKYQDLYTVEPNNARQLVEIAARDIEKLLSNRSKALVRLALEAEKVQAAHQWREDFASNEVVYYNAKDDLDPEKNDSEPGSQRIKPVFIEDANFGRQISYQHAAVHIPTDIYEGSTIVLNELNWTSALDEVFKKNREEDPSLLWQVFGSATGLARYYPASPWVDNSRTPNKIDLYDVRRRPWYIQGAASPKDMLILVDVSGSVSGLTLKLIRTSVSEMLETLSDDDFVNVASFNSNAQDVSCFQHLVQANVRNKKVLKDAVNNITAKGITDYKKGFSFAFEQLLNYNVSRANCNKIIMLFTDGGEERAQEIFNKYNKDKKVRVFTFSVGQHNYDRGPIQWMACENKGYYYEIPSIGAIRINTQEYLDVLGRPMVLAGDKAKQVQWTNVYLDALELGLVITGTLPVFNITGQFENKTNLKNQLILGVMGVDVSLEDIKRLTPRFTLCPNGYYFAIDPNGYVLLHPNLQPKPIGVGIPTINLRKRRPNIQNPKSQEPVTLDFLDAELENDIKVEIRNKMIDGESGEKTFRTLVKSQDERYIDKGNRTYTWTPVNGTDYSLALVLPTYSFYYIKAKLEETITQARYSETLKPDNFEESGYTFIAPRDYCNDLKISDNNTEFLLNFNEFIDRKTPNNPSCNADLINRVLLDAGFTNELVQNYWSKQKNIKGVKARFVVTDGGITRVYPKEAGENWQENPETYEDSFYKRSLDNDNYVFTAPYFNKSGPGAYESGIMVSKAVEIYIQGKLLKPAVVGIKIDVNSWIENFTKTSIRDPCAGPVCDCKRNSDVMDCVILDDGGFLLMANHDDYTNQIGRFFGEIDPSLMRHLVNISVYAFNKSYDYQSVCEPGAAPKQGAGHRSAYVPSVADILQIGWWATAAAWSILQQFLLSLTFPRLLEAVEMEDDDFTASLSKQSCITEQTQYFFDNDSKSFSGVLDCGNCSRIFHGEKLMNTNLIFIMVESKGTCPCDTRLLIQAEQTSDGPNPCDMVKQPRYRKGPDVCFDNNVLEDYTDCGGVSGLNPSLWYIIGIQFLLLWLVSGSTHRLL
- procedure-summary: Binding assay to human α2δ-1 subunit of Cav2.2 calcium channel ([3H]-Gabapentin)
- condition-description: binding to α2δ-1, [3H]-Gabapentin; read-out: Ki (nM) α2δ-1
observed-property: Ki

Look over these answered cases.
1) CCNc1ncc2c(n1)N(C)CCN(c1cccc(Br)c1)C2=O [Example 311]: 500 to 3000 nM
2) CCNc1ncc2c(n1)N(C)CCN(c1cccc(CO[C@@H](CCN(C)C)c3ccccc3)c1)C2=O: 500 to 3000 nM
3) CCNc1ncc2c(n1)N(C)CCN(c1cccc(Cn3cc(CNC)nn3)c1)C2=O: 500 to 3000 nM
4) CCNc1ncc2c(n1)N(C)CCN(c1cccc(COCC(NC)c3ccccc3)c1)C2=O (centres unmarked): > 3000 nM

// `CCNc1ncc2c(n1)N(C)CCN(c1cccc(-n3cc(CCN(C)CCc4ccccc4)nn3)c1)C2=O` : Ki value = 100 to 500 nM

// `CCNc1ncc2c(n1)N(C)CCN(Cc1cccc(OC)c1)C2` : Ki value = > 3000 nM

// `CCNc1ncc2c(n1)N(C)CCN(c1cccc(-n3cc(CN4CCC(c5ccccc5)(N(C)C)CC4)nn3)c1)C2=O` : Ki value = 100 to 500 nM

// `CCNc1ncc2c(n1)N(C)CCN(c1cccc(O[C@H](CCN(C)C(=O)OC(C)(C)C)c3ccccc3)c1)C2=O` : Ki value = > 3000 nM

* * *

Reported Ki values follow for various compounds
- target-system: human α2δ-1 subunit of Cav2.2 calcium channel (Homo sapiens (Human), UniProt P54289)
- procedure-summary: Binding assay to human α2δ-1 subunit of Cav2.2 calcium channel ([3H]-Gabapentin)
- condition-description: binding to α2δ-1, [3H]-Gabapentin; read-out: Ki (nM) α2δ-1

Look over these answered cases.
1) CCNc1ncc2c(n1)N(C)CCN(c1cccc(OCCN(C)CCc3ccccc3)c1)C2=O: 100 to 500 nM
2) Cc1ncc2c(n1)N(C)CCN(c1cccc(COC(CCN(C)C(=O)OC(C)(C)C)c3cccs3)c1)C2=O (stereo not shown): > 3000 nM
3) CCNc1cc2c(cn1)C(=O)N(c1cccc(COC(CCNC)c3ccccc3)c1)CCN2C (stereo not shown): 500 to 3000 nM

Ki of `CCNc1ncc2c(n1)N(C)CCN(c1cccc(-n3cc(CN(C)CCc4ccccc4)cn3)c1)C2=O` , assay on human α2δ-1 subunit of Cav2.2 calcium channel (Homo sapiens (Human), UniProt P54289), is 500 to 3000 nM

Ki of `CCNc1ncc2c(n1)N(C)CCN(c1cccc(-n3cc(CCN(C)C)nn3)c1)C2=O` , assay on human α2δ-1 subunit of Cav2.2 calcium channel (Homo sapiens (Human), UniProt P54289), is 100 to 500 nM

* * *

- target-system: human α2δ-1 subunit of Cav2.2 calcium channel (Homo sapiens (Human))
- procedure-summary: Binding assay to human α2δ-1 subunit of Cav2.2 calcium channel ([3H]-Gabapentin)
- condition-description: binding to α2δ-1, [3H]-Gabapentin; read-out: Ki (nM) α2δ-1
Reported Ki values follow for various molecules

Look over these answered cases.
1) CNCC[C@@H](OCc1cccc(N2CCN(C)c3nc(SC)ncc3C2=O)c1)c1ccccc1: 100 to 500 nM
2) CCNc1cc2c(cn1)C(=O)N(c1cccc(OC(CCN(C)C(=O)OCC[Si](C)(C)C)c3cccs3)c1)CCN2C (stereo not shown): > 3000 nM
3) CSc1ncc2c(n1)N(C)CCN(c1ccc(O[Si](C)(C)C(C)(C)C)cc1)C2=O: > 3000 nM
4) Cc1cc2c(cn1)C(=O)N(c1cccc(COC(CCN(C)C(=O)OC(C)(C)C)c3ccccc3)c1)CCN2C (stereo not shown): > 3000 nM
5) CCNc1ncc2c(n1)N(C)CCN(c1cccc(OC(CNC(=O)OC(C)(C)C)c3ccccc3)c1)C2=O (stereo not shown): > 3000 nM
6) CNCC(OCc1ccc(CN2CCN(C)c3nc(SC)ncc3C2=O)cc1)c1ccccc1 (stereo not shown): > 3000 nM
7) CSc1ncc2c(n1)N(C)CCN(c1cccc(C#N)c1)C2=O: > 3000 nM
8) CNCCC(OCc1cccc(N2CCN(C)c3nc(OC)ncc3C2=O)c1)c1cccs1 (stereo not shown): 500 to 3000 nM

// CN(CCC(Oc1cccc(N2CCN(C)c3cc(Cl)ncc3C2=O)c1)c1cccs1)C(=O)OCC[Si](C)(C)C (stereo not shown) : Ki value = > 3000 nM

// CNCCC(OCc1cccc(N2CCN(C)c3nc(SC)ncc3C2=O)c1)c1ccccc1 (stereo not shown) : Ki value = 500 to 3000 nM

// `CCNc1ncc2c(n1)N(C)CCN(c1cccc(-c3noc(C)n3)c1)C2=O` : Ki value = 100 to 500 nM

// CCNc1ncc2c(n1)N(C)CCN(c1cccc(OC(CCN(CCF)C(=O)OC(C)(C)C)c3cccs3)c1)C2=O (stereo not shown) : Ki value = > 3000 nM

// `CCNc1ncc2c(n1)N(C)CCN(c1cccc(-c3nnc(CN(C)C(=O)OC(C)(C)C)o3)c1)C2=O` : Ki value = > 3000 nM

// CCNc1ncc2c(n1)N(C)CCN(Cc1cccc(OC(CNC)c3ccccc3)c1)C2=O (stereo not shown) : Ki value = > 3000 nM

// CNCCC(Oc1ccc(CN2CCN(C)c3nc(OC)ncc3C2=O)cc1)c1nccs1 (stereo not shown) : Ki value = 100 to 500 nM

// `CCNc1ncc2c(n1)N(C)CCN(c1cccc(-n3cnc(CN4CCC(c5cccc(O)c5)(N(C)C)CC4)c3)c1)C2=O` : Ki value = 500 to 3000 nM

* * *

Reported Ki values follow for various compounds
- target-system: human α2δ-1 subunit of Cav2.2 calcium channel (Homo sapiens (Human))
- procedure-summary: Binding assay to human α2δ-1 subunit of Cav2.2 calcium channel ([3H]-Gabapentin)
- condition-description: binding to α2δ-1, [3H]-Gabapentin; read-out: Ki (nM) α2δ-1

Look over these answered cases.
1) CCNc1ncc2c(n1)N(C)CCN(c1cccc(OC)c1)C2=O [Example 109]: 500 to 3000 nM
2) CCNc1ncc2c(n1)N(C)CCN(c1cccc(OC(C)CN(C)C(=O)OC(C)(C)C)c1)C2=O (stereo not shown) [Example 74]: > 3000 nM
3) CNCCC(OCc1cccc(N2CCN(C)c3nc(C(F)(F)F)ncc3C2=O)c1)c1ccccc1 (stereo not shown) [Example 322]: > 3000 nM
4) CCNc1cc2c(cn1)C(=O)N(Cc1ccc(O[C@@H](CCNC)c3cccs3)cc1)CCN2C [Example 383]: 100 to 500 nM
5) Cc1nnc(-c2cccc(N3CCN(C)c4nc(N(C)Cc5ccccn5)ncc4C3=O)c2)o1 [Example 106]: > 3000 nM
6) CCNc1ncc2c(n1)N(C)CCN(c1ccccc1COC(CCNC)c1ccccc1)C2=O (stereo not shown) [Example 337]: > 3000 nM

// CCNc1ncc2c(n1)N(C)CCN(c1cccc(OCCCN(Cc3ccccc3)C(=O)OC(C)(C)C)c1)C2=O [Example 89] : Ki value = > 3000 nM

// CNCC[C@@H](OCc1cccc(N2CCN(C)c3nc(NCc4ccccn4)ncc3C2=O)c1)c1ccccc1 [Example 343] : Ki value = 100 to 500 nM

* * *

- target-system: human norepinephrine transporter (NET) (Homo sapiens (Human))
- Sequence (P23975 whole entry): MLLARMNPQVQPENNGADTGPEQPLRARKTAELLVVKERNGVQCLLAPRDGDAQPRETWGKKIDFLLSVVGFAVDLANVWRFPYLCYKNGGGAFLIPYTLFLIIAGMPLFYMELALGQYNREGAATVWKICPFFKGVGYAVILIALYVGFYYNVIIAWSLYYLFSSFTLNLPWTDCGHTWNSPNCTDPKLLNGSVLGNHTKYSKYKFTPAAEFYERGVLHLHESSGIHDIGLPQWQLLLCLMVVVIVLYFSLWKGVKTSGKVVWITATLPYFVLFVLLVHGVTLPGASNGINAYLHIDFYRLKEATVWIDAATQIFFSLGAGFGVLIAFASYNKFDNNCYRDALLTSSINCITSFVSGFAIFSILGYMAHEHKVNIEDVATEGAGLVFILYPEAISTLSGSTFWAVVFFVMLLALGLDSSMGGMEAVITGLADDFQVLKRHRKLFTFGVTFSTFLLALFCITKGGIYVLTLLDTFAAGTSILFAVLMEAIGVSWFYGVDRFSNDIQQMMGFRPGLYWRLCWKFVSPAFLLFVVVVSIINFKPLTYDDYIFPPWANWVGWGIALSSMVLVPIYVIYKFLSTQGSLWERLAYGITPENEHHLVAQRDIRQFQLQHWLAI
- procedure-summary: Binding assay to human norepinephrine transporter (NET) ([3H]-Nisoxetin)
- condition-description: Table 2, dual compounds; [3H]-Nisoxetin binding
observed-property: Ki

Look over these answered cases.
1) CNCC(OCc1ccc(CN2CCN(C)c3nc(SC)ncc3C2=O)cc1)c1ccccc1 (stereo not drawn): 100 to 500 nM
2) CCNc1ncc2c(n1)N(C)CCN(Cc1ccc(COC(CNC)c3ccccc3)cc1)C2=O (stereo not drawn): 100 to 500 nM
3) CNCC[C@@H](OCc1cccc(N2CCN(C)c3nc(N(C)Cc4cccnc4)ncc3C2=O)c1)c1ccccc1: 100 to 500 nM

Ki of `CNCC[C@@H](Oc1cccc(N2CCN(C)c3nc(SC)ncc3C2=O)c1)c1ccccc1` , assay on human norepinephrine transporter (NET) (Homo sapiens (Human)), is 100 to 500 nM

Ki of `CCNc1ncc2c(n1)N(C)CCN(c1cccc(-n3cnc(CN(C)Cc4ccccc4)c3)c1)C2=O` , assay on human norepinephrine transporter (NET) (Homo sapiens (Human)), is 100 to 500 nM

Ki of `CCNc1ncc2c(n1)N(C)CCN(c1cccc(CO[C@H](CCNC)c3ccccc3)c1)C2` , assay on human norepinephrine transporter (NET) (Homo sapiens (Human)), is 500 to 1000 nM

Ki of `CNCC[C@@H](OCc1cccc(N2CCN(C)c3nc(NC)ncc3C2=O)c1)c1ccccc1` , assay on human norepinephrine transporter (NET) (Homo sapiens (Human)), is 500 to 1000 nM
